- Assay System: TRPV1 (Rattus norvegicus, UniProt O35433)
- Sequence (O35433 whole entry): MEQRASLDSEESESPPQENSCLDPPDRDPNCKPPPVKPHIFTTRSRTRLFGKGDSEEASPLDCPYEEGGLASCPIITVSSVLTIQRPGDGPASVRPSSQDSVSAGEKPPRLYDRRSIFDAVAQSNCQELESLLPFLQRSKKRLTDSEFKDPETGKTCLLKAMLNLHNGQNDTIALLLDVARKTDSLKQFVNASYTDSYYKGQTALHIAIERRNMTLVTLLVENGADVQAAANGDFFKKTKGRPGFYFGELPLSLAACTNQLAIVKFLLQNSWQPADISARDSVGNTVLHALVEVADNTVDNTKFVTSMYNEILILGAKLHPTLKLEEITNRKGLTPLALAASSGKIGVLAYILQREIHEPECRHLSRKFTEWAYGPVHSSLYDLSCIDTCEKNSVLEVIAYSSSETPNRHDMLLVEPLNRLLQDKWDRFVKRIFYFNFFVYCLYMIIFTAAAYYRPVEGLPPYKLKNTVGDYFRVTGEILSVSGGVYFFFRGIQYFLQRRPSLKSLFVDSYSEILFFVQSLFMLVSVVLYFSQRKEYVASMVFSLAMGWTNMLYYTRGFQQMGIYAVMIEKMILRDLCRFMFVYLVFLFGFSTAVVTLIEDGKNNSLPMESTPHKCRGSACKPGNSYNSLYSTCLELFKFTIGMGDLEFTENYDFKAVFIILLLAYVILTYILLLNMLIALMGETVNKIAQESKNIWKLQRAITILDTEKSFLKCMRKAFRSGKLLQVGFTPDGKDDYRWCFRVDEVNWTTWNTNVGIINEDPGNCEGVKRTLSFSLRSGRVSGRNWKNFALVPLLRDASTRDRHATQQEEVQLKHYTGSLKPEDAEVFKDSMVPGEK
- Protocol Summary: capsaicin-induced 45Ca2+-uptake in TRPV1ε-NIH3T3 cells
- Format: cell-based
- Protocol Conditions: in presence of 2 µM capsaicin
Quantity Kind: enhancing activity (in words)

Give the measured enhancing activity (in words) of CO/C(O)=C1\C(C)=NC(C)=C([N+](=O)[O-])[C@H]1c1ccccc1C(F)(F)F [S(–)-Bay K 8644, reference compound] .
not enhancers

Entry under review: COC(=O)C1=C(C)NC(C)=C(C(=O)OCCN(C)Cc2ccccc2)C1c1cccc([N+](=O)[O-])c1 (stereo not drawn) [nicardipine, reference compound] . Reported enhancing activity (in words)?
not enhancers
